# assay procedure: Binding affinity for dopamine receptor D2 in guinea pig striatal membrane using radiolabeled ligand [3H]spiperone
Categorized via Ki: lo = under 1000 nM, mid = from 1000 nM up to 3000 nM, hi = 3000 nM and over

Sample answers from the record:
compound	classification
CCN(CC)CCC1(C)OC=C(c2ccccc2)C1=O (configuration not stated)	hi
O=C(CCCN1CCCC2(C1)OC(c1ccccc1)=CC2=O)c1ccc(F)cc1 (configuration not stated)	lo
O=C1C(c2ccc3ccccc3c2)=COC12CCN(CCc1ccccc1)CC2	hi

GET /class?item= CCN(CC)CCC1(C)OC(c2ccccc2)=CC1=O (configuration not stated)
hi

Note: place this compound into its band. Item: O=C1C(c2ccc(F)cc2)=COC12CCN(CC1CCCCC1)CC2
lo

Exam item: assign O=C1C(c2ccccc2)=COC12CCN(Cc1ccccc1)C2 (configuration not stated) to the correct category.
hi

Field: class (Ki) — entry: O=C1C(c2ccccc2)=COC12CCN(Cc1ccccc1)CC2
mid

For this compound, which bin applies? O=C1C(c2ccccc2)=COC12CCN(CC1CCCCC1)CC2
lo

// return the class label for O=C1C(c2ccc(F)cc2)=COC12CCN(CCc1ccccc1)CC2
lo

Lab note: sort O=C1C=C(c2ccccc2)OC12CCNCC2 into the matching Ki band.
hi

Which class is correct for the following compound? O=C1C(c2ccccc2)=COC12CCNCC2
hi

Classify this compound: CN1CCC2(CC1)OC(c1ccccc1)=CC2=O
mid

---

# assayed system: Sigma-1 receptor (Cavia porcellus)
# assay procedure: Binding affinity for sigma receptor in guinea pig brain membrane using radiolabeled ligand [3H]-(+)-SKF- 10,047 was determined
So I've got a bunch of compounds here, and I need their Ki values.
Answers are plain numbers, in nM.

Recorded results for 4 compounds are shown here.
compound	unit tag	Ki
CN(C)CCC1(c2ccccc2)OC=C(c2ccccc2)C1=O (stereo unspecified)	nM	223
O=C(CCCN1CCC2(CC1)OC=C(c1ccccc1)C2=O)c1ccc(F)cc1	nM	17
CCN(CC)CCC1(C)OC(c2ccccc2)=CC1=O (stereo unspecified)	nM	44
Cc1cc(CN2CCC3(CC2)OC=C(c2ccccc2)C3=O)on1	nM	7500

Provide the reported Ki of each entry below, same order.
1. O=C(CCCN1CCCC2(C1)OC(c1ccccc1)=CC2=O)c1ccc(F)cc1 (stereo unspecified)
2. CCN(CC)CCCC1(C)OC=C(c2ccccc2)C1=O (stereo unspecified)
3. O=C1C(c2ccccc2)=COC12CCN(Cc1ccccc1)C2 (stereo unspecified)
4. O=C1C=C(c2ccccc2)OC12CCN(CCc1ccccc1)CC2
5. C=CCN1CCC2(CC1)OC=C(c1ccccc1)C2=O
6. O=C1C(c2ccccc2)=COC12CCN(Cc1ccc(F)cc1)CC2
7. CN1CCC2(CC1)OC=C(c1ccccc1)C2=O
8. O=C1C(c2ccccc2)=COC12CCNCC2

[384, 16, 32, 1, 163, 3, 580, 6220]

State the recorded Ki for every item in the following list.
1. COc1ccc(C2=COC3(CCN(CCc4ccccc4)CC3)C2=O)cc1
2. O=C1C=C(c2ccc(F)cc2)OC12CCN(CCc1ccccc1)CC2
3. O=C1C(c2ccccc2)=COC12CCN(Cc1ccccc1)CC2
4. O=C1C=C(c2ccccc2)OC12CCN(Cc1ccccc1)CC2

30
6
4
1

---

# assay procedure: Binding affinity for dopamine receptor D2 in guinea pig striatal membrane using radiolabeled ligand [3H]spiperone
Would you kindly list pKi for each of these compounds?
Numbers only, as −log10 of the molar value.

compound	observed result
CN(C)CCC1(c2ccccc2)OC=C(c2ccccc2)C1=O (stereo not given)	5.57

Each of the following entries comes with a recorded value; kindly state pKi for each.
1. O=C1C(c2ccccc2)=COC12CCN(Cc1ccc(F)cc1)CC2
2. CN1CCC2(CC1)OC(C)(c1ccccc1)CC2=O (stereo not given)
3. O=C(CCCN1CCC2(CC1)OC=C(c1ccccc1)C2=O)c1ccc(F)cc1

5.62
5.00
7.15
